conditions: 288.2 K; Liquid; Transpiration method
readout: vapor or sublimation pressure (kPa)
Dear colleague, please return just the value in kPa, with no unit written.

Worked examples follow.
molecule	vapor or sublimation pressure (kPa)
CCCCCOC(C)=O [pentyl ethanoate]	0.2413
CCCCCCCCOC=O [octyl methanoate]	0.01973
CCCCCOC=O [pentyl methanoate]	0.61

vapor or sublimation pressure measured on CCCCCCOC=O [hexyl methanoate] = 0.1935

vapor or sublimation pressure measured on CCCCCCOC(=O)CC [hexyl propanoate] = 0.04354

* * *

Entries and their vapor or sublimation pressure values follow.
conditions: 293.3 K; Liquid; Transpiration method
Dear colleague, please return just the value in kPa, with no unit written.

Worked examples follow.
molecule	units	vapor or sublimation pressure
CCCCCCCCOC=O [octyl methanoate]	kPa	0.02964
CCCCCOC=O [pentyl methanoate]	kPa	0.8452
CCCCCOC(C)=O [pentyl ethanoate]	kPa	0.343
CCCCCCCOC=O [heptyl methanoate]	kPa	0.08835
CCCCCCOC=O [hexyl methanoate]	kPa	0.2694

vapor or sublimation pressure measured on CCCCCOC(=O)CC [pentyl propanoate] = 0.1374

vapor or sublimation pressure measured on CCCCCCCCOC(=O)CC [octyl propanoate] = 0.00465
